// reported pKi for each item listed
# Assayed System: human glucagon receptor (GCGR) (Homo sapiens (Human), UniProt P47871)
# Sequence (P47871 26-477): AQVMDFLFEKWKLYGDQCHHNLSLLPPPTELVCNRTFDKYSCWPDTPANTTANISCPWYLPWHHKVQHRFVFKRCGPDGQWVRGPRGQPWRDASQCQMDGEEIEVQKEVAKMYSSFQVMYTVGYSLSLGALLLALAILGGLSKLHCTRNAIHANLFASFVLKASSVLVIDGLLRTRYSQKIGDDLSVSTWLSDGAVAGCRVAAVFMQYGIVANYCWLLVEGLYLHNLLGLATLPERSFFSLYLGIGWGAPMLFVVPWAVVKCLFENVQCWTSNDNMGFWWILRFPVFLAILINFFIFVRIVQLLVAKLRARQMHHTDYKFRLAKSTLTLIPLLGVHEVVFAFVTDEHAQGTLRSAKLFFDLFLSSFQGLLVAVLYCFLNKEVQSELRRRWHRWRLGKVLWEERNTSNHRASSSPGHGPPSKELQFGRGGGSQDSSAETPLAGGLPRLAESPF
# Protocol Text: Inhibition of 125I-glucagon binding to membranes from HEK293 cells expressing the human glucagon receptor
# Condition Parameters: membranes of hGluc-1 HEK cells, 125I-glucagon 0.3 nM, 2 hours room temperature; IC50 converted to Ki; average if tested more than once
For clarity, pKi is expressed as the negative log10 of concentration in mol/L.

Record excerpt, results attached:
Smiles | Measured Property | Measurement
O=C(O)CCNC(=O)c1ccc(-c2cc(F)c(F)cc2CNc2ccc(-c3ccc(Cl)cc3F)c(Cl)c2)cn1 | pKi | 7.60
O=C(O)CCNC(=O)c1ccc(-c2cc(F)c(F)cc2C(=O)Nc2ccc(-c3ccc(F)cc3)cc2)cn1 | pKi | 6.86
O=C(O)CCNC(=O)c1ccc(-c2cc(Cl)ccc2CNc2ccc(-c3ccc(Cl)cc3Cl)c(F)c2)cn1 | pKi | 7.71
O=C(O)CCNC(=O)c1ccc(-c2cc(F)c(F)cc2CNc2ccc(-c3ccc(F)c(C(F)(F)F)c3)c(Cl)c2)cn1 | pKi | 7.67
COc1ccc(-c2ccc(NCc3ccc(Cl)cc3-c3ccc(C(=O)NCCC(=O)O)nc3)cc2)c(Cl)c1 | pKi | 7.55

Identify the measured pKi of O=C(O)CCNC(=O)c1ccc(-c2cc(Cl)ccc2CNc2ccc(-c3c(F)cccc3Cl)cc2)cn1 for human glucagon receptor (GCGR) (Homo sapiens (Human), UniProt P47871).
7.51

Identify the measured pKi of Cc1cccc(CNc2ccc(-c3ccc(Cl)cc3)cc2)c1-c1ccc(C(=O)NCCC(=O)O)nc1 for human glucagon receptor (GCGR) (Homo sapiens (Human), UniProt P47871).
7.07

Identify the measured pKi of Cc1cc(C(F)(F)F)ccc1-c1ccc(NCc2ccc(C(F)(F)F)cc2-c2ccc(C(=O)NCCC(=O)O)nc2)cc1 for human glucagon receptor (GCGR) (Homo sapiens (Human), UniProt P47871).
7.71
